measurement.target: Metabotropic glutamate receptor 2 (Rattus norvegicus)
Sequence (P31421 whole entry): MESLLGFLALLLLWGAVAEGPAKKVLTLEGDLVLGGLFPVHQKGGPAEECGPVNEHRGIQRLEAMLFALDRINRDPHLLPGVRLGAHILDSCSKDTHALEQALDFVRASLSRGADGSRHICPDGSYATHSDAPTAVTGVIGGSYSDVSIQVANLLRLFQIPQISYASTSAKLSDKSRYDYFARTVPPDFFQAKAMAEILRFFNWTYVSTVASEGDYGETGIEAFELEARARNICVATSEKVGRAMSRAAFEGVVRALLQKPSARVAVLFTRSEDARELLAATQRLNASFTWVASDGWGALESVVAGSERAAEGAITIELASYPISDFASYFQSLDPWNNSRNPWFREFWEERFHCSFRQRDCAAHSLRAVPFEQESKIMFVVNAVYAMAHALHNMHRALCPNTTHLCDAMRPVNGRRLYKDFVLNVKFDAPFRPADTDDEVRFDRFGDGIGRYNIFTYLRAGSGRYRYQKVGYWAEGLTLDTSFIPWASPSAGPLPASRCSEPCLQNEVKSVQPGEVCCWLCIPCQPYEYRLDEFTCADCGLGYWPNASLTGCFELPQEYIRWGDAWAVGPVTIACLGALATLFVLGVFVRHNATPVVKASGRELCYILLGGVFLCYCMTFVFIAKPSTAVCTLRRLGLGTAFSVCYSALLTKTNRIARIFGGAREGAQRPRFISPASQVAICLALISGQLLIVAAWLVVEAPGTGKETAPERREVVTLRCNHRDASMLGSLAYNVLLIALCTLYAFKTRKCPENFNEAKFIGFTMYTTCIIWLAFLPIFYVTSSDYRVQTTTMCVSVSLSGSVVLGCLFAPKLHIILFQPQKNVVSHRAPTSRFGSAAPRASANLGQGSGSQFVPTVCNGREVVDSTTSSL
assay.text: Displacement of [3H]LY354740 from rat mGluR2 expressed in CHO cells
Assay type: cell-based
value.type: IC50 (nM)

# count of solved cases: 5
O=C1CC(c2cccc(I)c2)=Nc2ccc(C#Cc3ccccc3)cc2N1 ... 154
COC1CCN(c2cc3c(cc2C#Cc2ccccc2)NC(=O)CC(c2cccc(C#N)c2)=N3)CC1 ... 82
N#Cc1cccc(C2=Nc3cc(N4CCSCC4)c(C#Cc4ccccc4)cc3NC(=O)C2)c1 ... 40
O=C1CC(c2cccc(Cl)c2)=Nc2ccc(C#Cc3ccccc3)cc2N1 ... 80
CN1CCN(c2cc3c(cc2C#Cc2ccccc2)NC(=O)CC(c2cccc(C#N)c2)=N3)CC1 ... 278

(A) N#Cc1cccc(C2=Nc3cc(OCC(N)=O)c(C#Cc4ccccc4)cc3NC(=O)C2)c1
(B) N#Cc1cccc(C2=Nc3cc(N4CCOCC4)c(C#Cc4ccccc4)cc3NC(=O)C2)c1
For A and B , which recorded IC50 is lower? Kindly give the label for the entry you pick. B
